# target: A0A143ZZT8
# experiment: IC50 for competition of protein binding to Kinobeads
# conditions-used: assay detail: Kinobeads competition in P. falciparum blood-stage lysate

{"compound": "O=c1[nH]c2ccc(Cl)cc2c(NC2CN3CCC2CC3)c1-c1nc2ccccc2[nH]1 (stereo unspecified)", "IC50": "> 20 µM"}

---

# target: UniProt Q8I5T4
# experiment: IC50 for competition of protein binding to Kinobeads
# conditions-used: assay detail: Kinobeads competition in P. falciparum blood-stage lysate
pIC50: −log10 of the molar value.
readout-label: pIC50

{"molecule": "O=c1[nH]c2ccc(Cl)cc2c(NC2CN3CCC2CC3)c1-c1nc2ccccc2[nH]1 (stereo unspecified)", "assay-result": "< 4.70"}

---

# target: UniProt Q8I5F9
# experiment: IC50 for competition of protein binding to Kinobeads
# conditions-used: assay detail: Kinobeads competition in P. falciparum blood-stage lysate

{"molecule": "O=c1[nH]c2ccc(Cl)cc2c(NC2CN3CCC2CC3)c1-c1nc2ccccc2[nH]1 (stereo unspecified)", "IC50": "> 20 µM"}

---

# target: UniProt Q8IIW6
# experiment: apparent dissociation constant (Kd app) from Kinobeads competition
# conditions-used: assay detail: Kinobeads competition in P. falciparum blood-stage lysate
readout-label: Kd (nM)

{"compound": "O=c1[nH]c2ccc(Cl)cc2c(NC2CN3CCC2CC3)c1-c1nc2ccccc2[nH]1 (stereo unspecified) [CHIR-124]", "target": "UniProt Q8IIW6", "value-units": "nM", "assay-result": 181}

---

# target: UniProt Q8I447
# experiment: IC50 for competition of protein binding to Kinobeads
# conditions-used: assay detail: Kinobeads competition in P. falciparum blood-stage lysate

{"compound": "O=c1[nH]c2ccc(Cl)cc2c(NC2CN3CCC2CC3)c1-c1nc2ccccc2[nH]1 (stereo unspecified)", "IC50": "> 20 µM"}

---

# target: UniProt Q9U0K8
# experiment: IC50 for competition of protein binding to Kinobeads
# conditions-used: assay detail: Kinobeads competition in P. falciparum blood-stage lysate
pIC50: −log10 of the molar value.

{"molecule": "O=c1[nH]c2ccc(Cl)cc2c(NC2CN3CCC2CC3)c1-c1nc2ccccc2[nH]1 (stereo unspecified) [CHIR-124]", "pIC50": 5.28}

---

# target: UniProt C0H530
# experiment: IC50 for competition of protein binding to Kinobeads
# conditions-used: assay detail: Kinobeads competition in P. falciparum blood-stage lysate
pIC50: −log10 of the molar value.

{"compound": "O=c1[nH]c2ccc(Cl)cc2c(NC2CN3CCC2CC3)c1-c1nc2ccccc2[nH]1 (stereo unspecified)", "pIC50": "< 4.70"}

---

# target: UniProt Q8ILL2
# experiment: IC50 for competition of protein binding to Kinobeads
# conditions-used: assay detail: Kinobeads competition in P. falciparum blood-stage lysate

{"compound": "O=c1[nH]c2ccc(Cl)cc2c(NC2CN3CCC2CC3)c1-c1nc2ccccc2[nH]1 (stereo unspecified)", "IC50": "> 20 µM"}

---

# target: UniProt Q8I5K4
# experiment: IC50 for competition of protein binding to Kinobeads
# conditions-used: assay detail: Kinobeads competition in P. falciparum blood-stage lysate
pIC50: −log10 of the molar value.

{"compound": "O=c1[nH]c2ccc(Cl)cc2c(NC2CN3CCC2CC3)c1-c1nc2ccccc2[nH]1 (stereo unspecified)", "pIC50": "< 4.70"}
